Parameter: IC50. Scope: all listed entries.
system: A549; test: Antiproliferative activity against human A549 cells by MTT assay; format: functional, cell-based

| COMPOUND | TARGET_OR_TEST_SYSTEM | IC50, µM |
| --- | --- | --- |
| CCC(C)C1NC(=O)C(NC(=O)/C=C/c2ccccc2)C(C(C)C)Oc2ccc(cc2)/C=C/NC1=O (stereo not drawn) | A549 | 21.5 |
| C=C1CC[C@@H]2[C@](C)(CCC[C@]2(C)C(=O)O)[C@H]1CC/C(C)=C/C(=O)O | A549 | 47.8 |
| CC1(C)CCC[C@]2(C)[C@H]3C[C@H]4C(CO)=CCO[C@@H]4[C@H]3C[C@H](O)[C@@H]12 | A549 | 25.2 |
